Data origin: BindingDB's records for doi:10.1016/j.chembiol.2006.06.007

- measured target: UDP-galactopyranose mutase (Mycobacterium tuberculosis (strain ATCC 25618 / H37Rv), UniProt P9WIQ1)
- Sequence (P9WIQ1 whole entry): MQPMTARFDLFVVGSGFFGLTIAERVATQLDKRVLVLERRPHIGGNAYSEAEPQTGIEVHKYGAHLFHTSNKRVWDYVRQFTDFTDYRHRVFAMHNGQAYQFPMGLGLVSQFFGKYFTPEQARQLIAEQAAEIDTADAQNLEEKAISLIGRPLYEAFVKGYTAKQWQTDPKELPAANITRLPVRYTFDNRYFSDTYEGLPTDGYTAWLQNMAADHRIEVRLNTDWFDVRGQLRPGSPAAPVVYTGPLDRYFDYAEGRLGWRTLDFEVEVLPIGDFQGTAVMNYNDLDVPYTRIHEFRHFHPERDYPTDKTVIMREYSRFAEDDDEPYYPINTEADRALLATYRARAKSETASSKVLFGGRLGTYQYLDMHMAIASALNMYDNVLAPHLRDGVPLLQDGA
- assay method text: High-throughput FP Assay
pKd: −log10 of the molar value.
reported property: pKd

INSERT INTO results (compound, reported_property, observed_measurement) VALUES
  ('CC(C(=O)O)N1C(=O)/C(=C\c2cccc(Br)c2)SC1=S (stereo not drawn) [Thiazolidinone core, 16]', 'pKd', '< 3.48'),
  ('O=C(O)C(Cc1ccccc1)N1C(=O)/C(=C\c2cccc([N+](=O)[O-])c2)SC1=S (stereo not drawn) [Thiazolidinone core, 26]', 'pKd', '< 4.48'),
  ('CC(C(=O)O)N1C(=O)/C(=C2/C(=O)Nc3ccccc32)SC1=S (stereo not drawn) [Thiazolidinone core, 19]', 'pKd', '< 3.48'),
  ('O=C(O)N1C(=O)/C(=C\c2ccccc2)SC1=S [Thiazolidinone core, 31]', 'pKd', '< 3.48'),
  ('O=C(O)C(Cc1ccccc1)N1C(=O)/C(=C\c2cccc(F)c2)SC1=S (stereo not drawn) [Thiazolidinone core, 23]', 'pKd', '< 4.48'),
  ('COc1cccc(/C=C2/SC(=S)N(C(Cc3ccccc3)C(=O)O)C2=O)c1 (stereo not drawn) [Thiazolidinone core, 28]', 'pKd', '< 4.48'),
  ('O=C(O)C(Cc1ccc(O)cc1)N1C(=O)/C(=C\c2cccc(Br)c2)SC1=S (stereo not drawn) [Thiazolidinone core, 17]', 'pKd', '< 4.48'),
  ('O=C(O)C(Cc1ccccc1)N1C(=O)/C(=C\c2ccccc2Br)SC1=S (stereo not drawn) [Thiazolidinone core, 25]', 'pKd', '< 4.48');

====

pKd: −log10 of the molar value.
The following compounds have recorded pKd on UniProt Q762K7.
Sequence (Q762K7 whole entry): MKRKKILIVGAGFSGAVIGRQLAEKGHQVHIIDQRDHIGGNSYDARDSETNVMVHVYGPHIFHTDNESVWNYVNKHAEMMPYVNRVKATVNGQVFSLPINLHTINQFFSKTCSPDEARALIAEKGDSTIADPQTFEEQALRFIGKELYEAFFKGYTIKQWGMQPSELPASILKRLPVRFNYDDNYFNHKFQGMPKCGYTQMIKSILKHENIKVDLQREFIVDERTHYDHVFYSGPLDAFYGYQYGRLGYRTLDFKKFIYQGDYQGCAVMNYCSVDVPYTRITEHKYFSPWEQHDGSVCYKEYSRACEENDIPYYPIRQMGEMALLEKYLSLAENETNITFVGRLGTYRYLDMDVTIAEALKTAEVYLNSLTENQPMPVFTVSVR
reported property: pKd

INSERT INTO measurements (compound, observed_measurement) VALUES
  ('O=C(O)N1C(=O)/C(=C\c2ccccc2)SC1=S', '< 4.48'),
  ('Cc1cccc(/C=C2/SC(=S)N(C(Cc3ccccc3)C(=O)O)C2=O)c1 (centres undefined)', '< 4.48'),
  ('O=C(O)C(Cc1ccccc1)N1C(=O)/C(=C\c2cccc([N+](=O)[O-])c2)SC1=S (centres undefined)', '< 4.48'),
  ('O=C(O)C(Cc1ccccc1)N1C(=O)/C(=C\c2ccccc2)SC1=S (centres undefined)', '< 4.48');
